B1: Azoarcus group I ribozyme (parent)
chain: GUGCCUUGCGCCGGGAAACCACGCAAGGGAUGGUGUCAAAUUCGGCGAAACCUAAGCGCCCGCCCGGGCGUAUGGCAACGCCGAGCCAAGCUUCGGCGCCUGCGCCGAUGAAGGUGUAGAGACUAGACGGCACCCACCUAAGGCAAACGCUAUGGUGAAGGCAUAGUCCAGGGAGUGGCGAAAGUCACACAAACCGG

Variants of: B1
Assay: reverse-splicing fitness (ratio to wild type); higher = more active; in vitro selection; Mg2+ level not given
Each entry below carries its reported reverse-splicing fitness.
Form: value (number only, do not type unit).

Given C82G A111C A120G C150A C169G U176G , state its recorded reverse-splicing fitness. 0.00569

Request: C82A A111G A120C A145G C150A C169A U176C 0.0211

Request: C82A A120C C150U C169A U176G 0.00673

Request: C82G A111C A145G C150A C169G U176C 0.0256

Request: C82G A111G A120U A145C C150G C169G U176A 0.00278

Request: C82U A111U A120C C169G U176G 0.0049

Request: A111G A120G C150G 0.0248

Request: C82G A111U A120U A145G C150U U176A 0.0103

Request: C82A A111U A120C A145G C150A U176G 0.00997

Request: A111G A120G A145G C150U C169U U176C 0.0831

Request: C82G A120U A145G C150U U176C 0.0776

Request: C82G A111G A120G C150A C169U U176A 0.021
